# testTarget: Delta-type opioid receptor (Mus musculus, UniProt P32300)
# Sequence (P32300 whole entry): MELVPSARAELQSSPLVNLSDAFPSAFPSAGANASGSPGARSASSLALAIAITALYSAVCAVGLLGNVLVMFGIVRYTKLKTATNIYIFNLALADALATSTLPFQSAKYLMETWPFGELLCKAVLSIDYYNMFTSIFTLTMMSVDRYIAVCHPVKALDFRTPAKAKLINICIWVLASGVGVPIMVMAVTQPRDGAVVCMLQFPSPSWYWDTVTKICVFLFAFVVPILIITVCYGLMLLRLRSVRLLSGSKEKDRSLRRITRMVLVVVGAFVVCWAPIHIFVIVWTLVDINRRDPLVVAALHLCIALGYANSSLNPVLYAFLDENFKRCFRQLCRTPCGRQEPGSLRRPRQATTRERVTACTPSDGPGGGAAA
# procedureSummary: Inhibitory activity against Opioid receptor delta 1 using [3H]DPDPE
Non-standard residues stand in square brackets, D forms with d. Residues, ends and D or L forms follow the SMILES beside them. *: point of attachment. Phe(4-NH2) = Nc1ccc(C[C@H](N)C(=O)O)cc1; Tic = O=C(O)[C@@H]1Cc2ccccc2CN1; BrAc = O=C(CBr)*
Hi! Just check whether IC50 is below 20 nM. Below gives true, equal or above gives false.

| compound | testTarget | answerLabel |
| --- | --- | --- |
| Nc1ccc(C[C@H](NC(=O)[C@@H]2Cc3ccccc3CN2C(=O)[C@@H](N)Cc2ccc(O)cc2)C(=O)N[C@@H](Cc2ccccc2)C(=O)O)cc1 (H-Y[Tic][Phe(4-NH2)]F-OH) | Delta-type opioid receptor (Mus musculus, UniProt P32300) | false |
| N[C@@H](Cc1ccc(O)cc1)C(=O)N1Cc2ccccc2C[C@H]1C(=O)N[C@@H](Cc1ccccc1)C(=O)N[C@@H](Cc1ccc(NC(=O)CBr)cc1)C(=O)O (H-Y[Tic]F[Phe(4-NH2)](BrAc)-OH) | Delta-type opioid receptor (Mus musculus, UniProt P32300) | true |
| N[C@@H](Cc1ccc(O)cc1)C(=O)N1Cc2ccccc2C[C@H]1C(=O)N[C@@H](Cc1ccc(NC(=O)CBr)cc1)C(=O)N[C@@H](Cc1ccccc1)C(=O)O (H-Y[Tic][Phe(4-NH2)](BrAc)F-OH) | Delta-type opioid receptor (Mus musculus, UniProt P32300) | false |
| N[C@@H](Cc1ccc(O)cc1)C(=O)N1Cc2ccccc2C[C@H]1C(=O)N[C@@H](Cc1ccccc1)C(=O)N[C@@H](Cc1ccccc1)C(=O)O (H-Y[Tic]FF-OH) | Delta-type opioid receptor (Mus musculus, UniProt P32300) | true |

FYI, the data here is from ChEMBL document CHEMBL1135756.
